Target: human Yes1 enzyme (Homo sapiens, UniProt P07947)
Construct: made in house
Sequence (P07947 whole entry): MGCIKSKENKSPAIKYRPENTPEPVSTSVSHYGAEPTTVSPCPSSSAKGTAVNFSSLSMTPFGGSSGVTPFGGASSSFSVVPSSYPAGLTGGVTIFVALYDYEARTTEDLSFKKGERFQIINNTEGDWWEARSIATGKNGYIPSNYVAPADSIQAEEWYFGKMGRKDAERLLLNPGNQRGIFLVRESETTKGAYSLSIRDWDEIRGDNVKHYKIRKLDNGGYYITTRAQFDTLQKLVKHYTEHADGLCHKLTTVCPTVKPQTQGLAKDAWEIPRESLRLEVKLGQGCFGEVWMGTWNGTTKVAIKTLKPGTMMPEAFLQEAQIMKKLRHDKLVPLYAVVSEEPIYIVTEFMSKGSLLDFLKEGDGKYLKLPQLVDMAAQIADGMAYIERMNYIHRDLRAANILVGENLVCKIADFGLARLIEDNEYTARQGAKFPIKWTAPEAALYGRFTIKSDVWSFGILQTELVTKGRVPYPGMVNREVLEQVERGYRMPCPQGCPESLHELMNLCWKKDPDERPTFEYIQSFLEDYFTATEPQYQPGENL
Test: Yes1 enzyme inhibitory activity (time-resolved fluorometry, biotinylated peptide phosphorylation)
Type: biochemical
Details: biotinylated peptide phosphorylation, read-out: YES_IC50
pIC50: −log10 of the molar value.
assay.endpoint: pIC50

{"smiles.notation": "Cc1cc(Oc2ccccc2F)ncc1-n1ncc(C(=O)c2cc3cc(OC(F)F)c(NS(=O)(=O)C4CC4)cc3[nH]2)c1N", "system.name": "human Yes1 enzyme (Homo sapiens, UniProt P07947)", "pIC50": 8.40}

A: CC(=O)N1CCC(c2cc3[nH]c(C(=O)c4cnn(-c5ccc(Oc6ccccc6F)cc5C)c4N)cc3cc2OCC(F)F)CC1
B: Cc1cc2cc(C(=O)c3cnn(-c4cnc(Oc5c(F)cccc5F)cc4C)c3N)[nH]c2cc1N1C(=O)N[C@@H](CO)C1=O
stdin: Of A versus B , which is the one with smaller reported pIC50? To answer, give the label that identifies your chosen option.
stdout: A

###

Target: human Yes1 enzyme (Homo sapiens, UniProt P07947)
Construct: made in house
Assay: Yes1 enzyme inhibitory activity (time-resolved fluorometry, biotinylated peptide phosphorylation)
Format: biochemical
Settings: biotinylated peptide phosphorylation, read-out: YES_IC50
assay.endpoint: IC50 (nM)

Guide cases for IC50, answers given:
{"molecule": "Cc1cc2cc(C(=O)c3cnn(-c4cnc(Oc5c(F)cccc5F)cc4C)c3N)[nH]c2cc1NS(=O)(=O)c1cccc(C#N)c1 [Example 5-1-555]", "u": "nM", "IC50": 14}
{"molecule": "Cc1cc(Oc2ccccc2F)ccc1-n1ncc(C(=O)c2cc3cc(F)c(NS(=O)(=O)c4cc(F)cc(F)c4)cc3[nH]2)c1N [Example 5-1-562]", "u": "nM", "IC50": 5.3}
{"molecule": "Cc1cc(Oc2ccccc2F)ccc1-n1ncc(C(=O)c2cc3cc(OCC(F)F)c(N4CCN(S(C)(=O)=O)CC4)cc3[nH]2)c1N [Example 4-23-005]", "u": "nM", "IC50": 1.7}

A: Cc1cc(-n2ncc(C(=O)c3cc4cc(C)c(N5C(=O)NC6(CC6)C5=O)cc4[nH]3)c2N)ccc1Oc1ccccc1F [Example 5-1-473]
B: COc1ccnc(S(=O)(=O)Nc2cc3[nH]c(C(=O)c4cnn(-c5cnc(Oc6c(F)cccc6F)cc5C)c4N)cc3cc2OCC(F)F)c1 [Example 5-1-569]
stdin: When A and B are compared, which has the higher number for IC50? To answer, give the label that identifies your chosen option.
stdout: A

###

Biological target: human Src enzyme (Homo sapiens, UniProt P12931)
Construct: purchased Carna Biosciences, Inc. 08-173
Sequence (P12931 whole entry): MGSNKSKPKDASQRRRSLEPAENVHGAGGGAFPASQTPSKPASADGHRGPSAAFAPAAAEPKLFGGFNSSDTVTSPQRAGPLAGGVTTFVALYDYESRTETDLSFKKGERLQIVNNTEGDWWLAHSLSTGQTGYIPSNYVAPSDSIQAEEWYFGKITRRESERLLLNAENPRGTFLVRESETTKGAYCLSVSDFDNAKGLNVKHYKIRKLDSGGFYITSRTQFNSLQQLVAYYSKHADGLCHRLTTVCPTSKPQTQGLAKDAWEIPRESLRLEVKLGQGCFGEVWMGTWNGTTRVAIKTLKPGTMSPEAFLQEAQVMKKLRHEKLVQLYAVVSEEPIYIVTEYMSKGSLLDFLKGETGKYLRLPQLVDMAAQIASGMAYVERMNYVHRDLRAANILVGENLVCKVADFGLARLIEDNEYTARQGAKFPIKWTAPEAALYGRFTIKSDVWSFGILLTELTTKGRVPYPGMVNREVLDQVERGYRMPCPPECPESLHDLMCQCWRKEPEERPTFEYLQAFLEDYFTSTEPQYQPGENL
Test: Src enzyme inhibitory activity (time-resolved fluorometry, biotinylated peptide phosphorylation)
Format: biochemical
Settings: biotinylated peptide phosphorylation, read-out: SRC_IC50
assay.endpoint: IC50 (nM)

{"smiles.notation": "Cc1cc2cc(C(=O)c3cnn(-c4c(C)cc(Oc5ccccc5F)cc4F)c3N)[nH]c2cc1NS(=O)(=O)N1CCOCC1", "IC50 (nM)": 250}
{"smiles.notation": "Cc1cc(Oc2ccccc2F)ccc1-n1ncc(C(=O)c2cc3cc(F)c(NS(=O)(=O)c4cncc(F)c4)cc3[nH]2)c1N", "IC50 (nM)": 350}
{"smiles.notation": "Cc1cc(Oc2c(F)cccc2F)ncc1-n1ncc(C(=O)c2cc3cc(OC(F)F)c(C4CCN(S(=O)(=O)C5CC5)CC4)cc3[nH]2)c1N", "IC50 (nM)": 46}
{"smiles.notation": "Cc1cc2cc(C(=O)c3cnn(-c4cnc(Oc5c(F)cccc5F)cc4C)c3N)[nH]c2cc1N1C(=O)NC2(COC2)C1=O", "IC50 (nM)": 48}
{"smiles.notation": "Cc1cc(Oc2c(F)cccc2F)ncc1-n1ncc(C(=O)c2cc3cc(OC(F)F)c(N4CCC(N5CCOCC5)CC4)cc3[nH]2)c1N", "IC50 (nM)": 48}

I: Cc1cc(Oc2ccccc2F)ccc1-n1ncc(C(=O)c2cc3cc(OC(F)F)c(NS(=O)(=O)CCC(F)F)cc3[nH]2)c1N
II: Cc1cc(Oc2ccccc2F)cc(F)c1-n1ncc(C(=O)c2cc3cc(OCC(F)F)c(N4CCC(N5CCOCC5)CC4)cc3[nH]2)c1N
stdin: Of I versus II , which is the one with smaller reported IC50? To answer, give the label that identifies your chosen option.
stdout: II

Provenance of the data: patent US10479780B2
